The measurements presented in this section are drawn from paper PMC9295256.

Assay: Brain protein binding, rapid equilibrium dialysis
Assay type: in vitro ADME
Details: mouse, mouse brain homogenate (dilution factor D = 5)
measured property: fraction unbound at 4 h, 500 ng/mL
When you answer, write just the number.

Exam item: Looking for the measured fraction unbound at 4 h, 500 ng/mL of N[C@@H](Cc1c[nH]cn1)C(=O)NCCc1c[nH]c2ccccc12 [Compound 9d] , can you help?
Marked response: 0.14

Exam item: Item: N[C@@H](Cc1c[nH]cn1)C(=O)Nc1cccc2cccnc12 [Compound 11a]
Marked response: 0.062

---

Molecular target: recombinant rat Nln (Rattus norvegicus)
Sequence (P42676 38-704): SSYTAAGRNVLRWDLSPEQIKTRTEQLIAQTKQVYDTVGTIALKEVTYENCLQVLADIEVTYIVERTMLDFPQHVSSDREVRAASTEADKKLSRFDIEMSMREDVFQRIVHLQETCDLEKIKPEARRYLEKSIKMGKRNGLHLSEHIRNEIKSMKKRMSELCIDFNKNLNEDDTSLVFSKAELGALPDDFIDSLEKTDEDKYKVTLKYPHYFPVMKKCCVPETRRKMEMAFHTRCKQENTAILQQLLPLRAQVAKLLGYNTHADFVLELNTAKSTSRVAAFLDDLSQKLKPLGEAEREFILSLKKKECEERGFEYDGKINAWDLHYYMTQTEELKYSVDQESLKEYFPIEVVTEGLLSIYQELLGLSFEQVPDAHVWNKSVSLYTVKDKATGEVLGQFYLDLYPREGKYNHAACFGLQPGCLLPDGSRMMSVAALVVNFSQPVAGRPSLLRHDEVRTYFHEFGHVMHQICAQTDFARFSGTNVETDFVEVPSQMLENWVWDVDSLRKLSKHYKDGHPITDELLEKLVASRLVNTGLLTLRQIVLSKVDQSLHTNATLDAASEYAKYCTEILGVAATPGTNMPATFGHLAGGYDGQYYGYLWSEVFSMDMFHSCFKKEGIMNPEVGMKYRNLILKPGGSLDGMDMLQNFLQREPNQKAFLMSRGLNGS
Experiment: Nln activation, continuous quenched fluorescence substrate
Format: biochemical
measured property: Amax, maximum % activation achieved (95% CI)

Exam item: Consider the compound `N[C@H](Cc1c[nH]cn1)C(=O)NCCc1ccc([N+](=O)[O-])cc1` and give its measured Amax, maximum % activation achieved (95% CI).
Marked response: 267.5 (250.1 to 287.1) %

Exam item: Quick one: `N[C@H](Cc1c[nH]cn1)C(=O)NCc1ccc(SC(F)(F)F)cc1`
Marked response: 251.5 (233.7 to 271.3) %

Exam item: Next up: `N[C@@H](Cc1c[nH]cn1)C(=O)NCCc1ccc(-c2ccccc2)cc1`
Marked response: 258.2 (244 to 273.4) %

Exam item: Then this compound: `COc1ccc(CNC(=O)[C@H](N)Cc2cnc[nH]2)cc1`
Marked response: 703.5 (588.9 to 915.6) %

Exam item: Try this compound too: `N[C@@H](Cc1c[nH]cn1)C(=O)NCc1ccc(F)cc1`
Marked response: 293 (276.5–310.7) %
